# Tested on: NCI/ADR-RES ovarian
# assay protocol: NCI tumour cell line growth inhibition, 48 h
Exercise: for every item that follows, state its recorded TGI.
Kindly provide the numeric value in µM only, without the unit symbol.

q: Entry `O=[N+]([O-])c1cc(CCl)ccc1CCl` has what TGI?
a: 8.84

q: Entry `CCOC(=O)/C(=C\NCC(OCC)OCC)c1nc2ccccc2[nH]1` has what TGI?
a: 24.4

q: Entry `C=C1C(=O)O[C@@H]2C(=O)[C@@H](C)[C@@H]3C=CC(=O)[C@@]3(C)[C@@H](OC(=O)/C(C)=C\C)[C@H]12` has what TGI?
a: 7.28

q: Entry `NS(=O)(=O)c1ccc(NNc2c3ccccc3nc3ccccc23)cc1` has what TGI?
a: 24.5
